# Measurement Notes: soluble on expression in E. coli; label from the status in PepcDB or PDB records

{"columns": ["Sequence Content", "soluble on expression in E. coli"],
 "data": [
  ["MKIHSYIFSLLACLVIALPGYSQVDRNETLIRSALHGLEYEIKAGFSIGGTAPLPLPVEIRSIDGYNPTLAISIGGEVTKWFAVQNKLGVIVGLRLENKAMTTEATVKNYNMEILGQGGERISGVWTGGVKTKVHTSGLTIPLMATYKLSNRWNIKAGPYFSYLLSREFSGHVYEGYLREGDPVGPKVEFTDGKIATYDFSDDLRHFQWGLQIGAGWRAFKHLNIYADLTWGLNDIFRNDFQTITFAMYPIYLNIGFGYAF", "not soluble"],
  ["MLETKDLNLFLGNKHVLKNISLSIPVRGEIIGIMGPNGAGKSSLIKSLIGEFNATGTKLLYNKPIQQQLQHITYIPQKAHIDLDFPISVEQVILSGCYKEIGWFRRPNKSARDKLKQLLSDLELESLRHRQISELSGGQLQRVLVARALMSESEVYFLDEPFVGIDFSSEKLIMTKIENLKQQGKLILIIHHDLSKAKQYFDRIILLNQTLRYFGDSEEAMSVTRLNETFMSSTDCSDPSQRSNITC", "not soluble"]
]}

* * *

# Measurement Notes: soluble on expression in E. coli; label from the status in PepcDB or PDB records

{"columns": ["Sequence Content", "soluble on expression in E. coli"],
 "data": [
  ["FRKIAQAYNLDLLVHHANAQLKQLVRRYRLKRGGSMLGLLVMDTEMGDELRSVHSLSGGETFLVSLALALGLASMASSTLRIESLFIDEGFGSLDPESLQLAMDALDGLQAQGRKVGVISHVQEMHERIPVQIRVRRQGNGLSTI", "not soluble"],
  ["MSLSSFEGKVAVITGAGSGIGRALALNLSEKRAKLALSDVDTDGLAKTVRLAQALGAQVKSDRLDVAEREAVLAHADAVVAHFGTVHQVYNNAGIAYNGNVDKSEFKDIERIIDVDFWGVVNGTKAFLPHVIASGDGHIVNISSLFGLIAVPGQSAYNAAKFAVRGFTEALRQEMLVARHPVKVTCVHPGGIKTAVARNATVADGEDQQTFAEFFDRRLALHSPEMAAKTIVNGVAKGQARVVVGLEAKAVDVLARIMGSSYQREGHHHHHH", "not soluble"]
]}

* * *

# Measurement Notes: soluble on expression in E. coli; label from the status in PepcDB or PDB records

{"columns": ["Sequence Content", "soluble on expression in E. coli"],
 "data": [
  ["DIGCYTLGIQSGTVETTLCMGSSISIASGLYHAGEKRPICCSIGDSTFFHTGMNSLLNAVFNKANITVTILDNRITAMTGHQPNPGVGFTVTGEPTVEVSLAELCKAMGAGFVTVVDPYNLEETQEAFKAAKEFEGTAVVIAKQPCVISGKRAGI", "not soluble"],
  ["MPCRGLHAIPAGPPEFPELATIYVVCGDKLNVMIDAGVTNSIMDSSFLEKLDLVILTHIHIDHIGLLPEILDRYKNAKVMIKNGFKKFLTTEDGVRRLNESSEKVLGDLYYIYGEFTKIDPDKVVEVEGGEMIDIGDGKTLKIIYTPGHAKHHISVVSDDILFTGDSGGAYFNGAVIPTTPPPLDYDNYVNSLRLQISLKPKVVGLAHGGLVSPNILEQHLDQMLGKESFDIGEIDIGGIGGEILRKQVEVNLRGLNEALGRNKKTLLEHHHHHH", "not soluble"],
  ["MAHHHHHHMSSKGAAMTPNGNGATHESRPGKKGRPPRRRADREAAGAHFDCGSSQTTEKGGDEYQYKHPKPRVLTSSLFMWEHVAVFSMPAQVAELERVSRDVARLLEDSNTGTHPMQRYWNAQWSRMVWREEELPDEKKYLAPTMLTRSDGKRKWKNVFVQEYPLYLKRVYQGKGVCNNAVNAAKVLFNRQVLNAAKTAAELERMELTVEEARVKEQKKRGVDVEFEETPDTAPSPPWLGCHHGSYPEKGERERHEKGRPRAVKKASHETYTRSDYKEDYRTGDRKGKHKKGGTGRWSKFDDFGDYDY", "not soluble"]
]}

* * *

# Measurement Notes: soluble on expression in E. coli; label from the status in PepcDB or PDB records
Value Type: soluble on expression in E. coli

{"columns": ["Sequence Content", "Measured"],
 "data": [
  ["MSAVLKKNKPFSILLMGTDTGALGRSDVGRTDTLMVATINPTKETAYLTSIPRDTRVTVGSGVNASVQKINAAYTIGGSKTAVKTVENLLDIPIDFYAIVNMGGLEKMVDAVGGVDVTPPLTFHYGAANVTKGKKTHLNGKQALAYSRMRHEDPLGDYGRQKRQRQVLQKMVVKAAGLSSITRYQTILKSLNGNLKTDLTFDDLMQIRAKYGDASHHIKSETLQGQDAMIDGLSYQVPTTSELKKVSNHIRKTLELANTTKFTTDADTDTTGSTAYGSSDNSGYGYLEHHHHHH", "soluble"],
  ["MSRQTEIVRRMVSAFNTGRTDDVDEYIHPDYLNPATLEHGIHTGPKAFAQLVGWVRATFSEEARLEEVRIEERGPWVKAYLVLYGRHVGRLVGMPPTDRRFSGEQVHLMRIVDGKIRDHRDWPDFQGTLRQLGDPWPDDEGWRP", "soluble"]
]}

* * *

# Measurement Notes: soluble on expression in E. coli; label from the status in PepcDB or PDB records
Value Type: soluble on expression in E. coli

{"columns": ["Sequence Content", "Measured"],
 "data": [
  ["SDTFSTKSLALQAQKKVLSKMASKAMVAVFVDNTSSEVLDELYQATKEFTRSRKEAQRVVKNLVKVAVKLAVLLRADQLDSNELAQLQRFRGRVRSLAMTALSFHQVDFTFDRRVLATGLLECRDLLHQAIGPHLTAKSHGRINHIFSHFANGDFLAALYSPAEPYRSHLCRICDGLGRMLDEGGI", "soluble"],
  ["MSLSEVQPIPVTVSQYSYYSDKNYPKRRTMEDAHVICDPLIEVEGRVYSLYAIFDGHRGRTAAQHCAKIVKDKIKEVLQRKDEGFEEMMQDAMYEMDMSLKENGIEYSGCCALMCIIEIKDKKRIIHMANCGDSCGIIIGTNEVIPMSEEHKATNENEAKRIKESGGMIINGRVSGDVAVTRGLGDHHLKQWVVSEPFVKEVEWQEDYKYIVLGCDGLWDTLNGNQIKEVLESNNCEFTSSAKSLTQLAIGKGSTDNITTIVLKLEGHHHHHH", "soluble"],
  ["MSLRILLALASLSGNTREVARVIRARCEERGHRVDWIETDLQTLAGQALDPHTYTLFLLGTWTDNAGRTPFEMKRFIVELLELIGKPPSVAVFGTGETQWGQEYYCGAVHRISDFFASRFPRLLIEQMPHGERDALAIVEWTDQVLDQCNKDSDADHYRYVAEGHHHHHH", "soluble"]
]}

* * *

# Measurement Notes: soluble on expression in E. coli; label from the status in PepcDB or PDB records
Value Type: soluble on expression in E. coli

// known answers, use as guide
{"columns": ["Sequence Content", "Measured"],
 "data": [
  ["MLLDFPHGQFGFTNSCIIAVIWLSLSPTLNRGQLNLDRFKFWLPTSQLLVLDVCLFDAFALEHHHHHH", "not soluble"],
  ["MAKRILCFGDSLTWGWVPVEDGAPTERFAPDVRWTGVLAQQLGADFEVIEEGLSARTTNIDDPTDPRLNGASYLPSCLATHLPLDLVIIMLGTNDTKAYFRRTPLDIALGMSVLVTQVLTSAGGVGTTYPAPKVLVVSPPPLAPMPHPWFQLIFEGGEQKTTELARVYSALASFMKVPFFDAGSVISTDGVDGIHFTEANNRDLGVALAEQVRSLL", "soluble"],
  ["MGFLEDKKRTLMNLELAIREGLVDEEIIPILNKINEIDNYYTTSSCIGRVGIMEIPKDKNPKLYSRWLGKWHHYASYDELFNALKNKKEGYIVFVMNSPILHIACKDIESAKKMLELAIHSGLKASSIKSISDKRVIVEILTTYKVDTPIGEDGEIFVDNNYLKFLLDYSNSKLKRAREILMRWANRLDELKK", "soluble"],
  ["MDVRQVLHMKGGAGENSYAMNSFIQRQVISITKPITEAAITALYSGDTVTTRLAIADLGCSSGPNALFAVTELIKTVEELRKKMGRENSPEYQIFLNDLPGNDFNAIFRSLPIENDVDGVCFINGVPGSFYGRLFPRNTLHFIHSSYSLMWLSQVPIGIESNKGNIYMANTCPQSVLNAYYKQFQEDHALFLRCRAQEVVPGGRMVLTILGRRSEDRASTECCLIWQLLAMALNQMVSEGLIEEEKMDKFNIPQYTPSPTEVEAEILKEGSFLIDHIEASEIYWSSCTKDGDGGGSVEEEGYNVARCMRAVAEPLLLDHFGEAIIEDVFHRYKLLIIERMSKEKTKFINVIVSLIRKSD", "soluble"],
  ["MLSEVEFVEFQKENFSLLIDARSPREFLHSHLIGALNFYALNDEEYQEIGTIYKKNQALAKAMGASYICQNTTKHILEITQNFRIGEKVGIYCSRGGLRSKSIAVILSELGFRVVRLKGGFKAYRTFVTHYFENEINFDFFALCGNTGCGKTELLEQLPQAINLEKMANHLGSSFGDILGKQPTQKAFEAELFHNIQNLENFAFIESESRKIGDIILPLKFYEKMQKAFKIYCFCSLENRVRRIQKIYQEKMTPLKFQQCVQKISPYISLNLRQDLLQSYERKEWQKLIVMLLEYYDKTYKKPDKIDLELNTDDILKAKEELLDHFKVQLLF", "not soluble"]
]}

Then this sequence:
Give the measured soluble on expression in E. coli of MPVVYKRILLKLSGEALMGDGHYGIDRAVVEHIVVEVAGVLQLGVEVAIVVGGGNIFRGMKSAGDGMDRVTADYMGMLATTMNALALHDAMRRNGVVSRVQSALRIDQVVEPYVRGKALRYLDERKVVVFAAGTGNPFFTTDTAAALRGMEMNANIVLKATKVDGIYTSDPLKNKDAQRFQSLTFDEAISKNLQVMDATALTLCRDQKLPINVFSIFKTGALKRVIMGEDEGTSVFV .
not soluble

Every entry's value here was drawn from the DeepSol protein solubility set.
